- Tested System: T1, human EphA4 (Homo sapiens, UniProt P54764)
- T1 construct: made in house; not restated for the human SEAP-His protein
- T1 sequence (P54764 20-547): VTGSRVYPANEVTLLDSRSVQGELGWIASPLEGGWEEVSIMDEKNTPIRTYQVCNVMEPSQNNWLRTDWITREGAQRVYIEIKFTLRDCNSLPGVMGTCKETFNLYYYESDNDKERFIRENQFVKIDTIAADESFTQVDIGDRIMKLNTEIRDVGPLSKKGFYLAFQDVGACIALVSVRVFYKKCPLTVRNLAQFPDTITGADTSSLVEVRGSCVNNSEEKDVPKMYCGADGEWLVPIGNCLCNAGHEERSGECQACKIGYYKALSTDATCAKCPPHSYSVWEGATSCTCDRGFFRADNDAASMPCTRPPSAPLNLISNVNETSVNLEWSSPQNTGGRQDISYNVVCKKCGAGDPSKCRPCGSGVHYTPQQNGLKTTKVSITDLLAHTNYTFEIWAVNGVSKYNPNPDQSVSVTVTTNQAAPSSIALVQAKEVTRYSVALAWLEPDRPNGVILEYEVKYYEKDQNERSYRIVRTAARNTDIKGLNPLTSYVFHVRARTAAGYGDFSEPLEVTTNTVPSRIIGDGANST
- Protocol Description: Affinity of humanized antibodies by SPR (Biacore T200)
- Assay type: binding
- Condition Summary: human EphA4 extracellular region-SEAP-His; 1:1 binding model
- Procedure: The binding affinity of each anti-EphA4 monoclonal humanized antibody obtained in Example 16 for human EphA4 was determined by surface plasmon resonance (SPR) using Biacore T200 (GE Healthcare). First, for the assay of antibody A, a rat anti-mouse IgG1 antibody produced with a conventional method by immunizing rat with mouse IgG1 antibody was immobilized on sensor chip CM5. […]
Below, each entry is listed with its recorded ka.

| Molecule | ka |
| --- | --- |
| antibody A: mouse anti-EphA4 monoclonal antibody, IgG1/κ; heavy chain variable region SEQ ID NO: 11, light chain variable region SEQ ID NO: 13 (antibody, listed as Mus musculus, V domains shown) VH: QIQLVQSGPELKKPGETVKISCKASGYTFTDYSMHWVKQAPGKGLKWMGWINTETGEPTYADDFKGRFAFSLETSASTAYLQINNLKNEDTATYFCARIPLYYYGSRYWYFDVWGAGTTVTVSS VL: DIQMTQSPASLSVSVGETVTITCRASENIYRNLAWYQQKQGKSPQLLVYAATNLADGVPSRFSGSGSGTQYSLKINSLQSEDFGSYYCQHFWGTPWTFGGGTKLEIK | 420000 M⁻¹ s⁻¹ |

Continue with the next molecule.
Note down ka recorded for 83 (antibody, V domains shown, constant regions without entry; synthetic humanized antibody light chain variable region sequence; synthetic humanized antibody heavy chain variable region sequence) VL: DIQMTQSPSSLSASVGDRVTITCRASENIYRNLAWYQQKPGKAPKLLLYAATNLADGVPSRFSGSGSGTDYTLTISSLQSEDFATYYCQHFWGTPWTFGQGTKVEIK VH: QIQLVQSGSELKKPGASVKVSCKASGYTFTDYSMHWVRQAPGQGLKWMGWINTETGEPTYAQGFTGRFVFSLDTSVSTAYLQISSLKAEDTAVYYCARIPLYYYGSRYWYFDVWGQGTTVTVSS
290000 M⁻¹ s⁻¹
